Entries and their AKT1 E17K IC50: Selectivity vs AKT1 WT
target: AKT1 E17K (Homo sapiens (Human), UniProt P31749, E17K); assay: Live cell target engagement (NanoBRET) in HEK293 cells; assay type: cell-based
Sequence (P31749 whole entry E17K): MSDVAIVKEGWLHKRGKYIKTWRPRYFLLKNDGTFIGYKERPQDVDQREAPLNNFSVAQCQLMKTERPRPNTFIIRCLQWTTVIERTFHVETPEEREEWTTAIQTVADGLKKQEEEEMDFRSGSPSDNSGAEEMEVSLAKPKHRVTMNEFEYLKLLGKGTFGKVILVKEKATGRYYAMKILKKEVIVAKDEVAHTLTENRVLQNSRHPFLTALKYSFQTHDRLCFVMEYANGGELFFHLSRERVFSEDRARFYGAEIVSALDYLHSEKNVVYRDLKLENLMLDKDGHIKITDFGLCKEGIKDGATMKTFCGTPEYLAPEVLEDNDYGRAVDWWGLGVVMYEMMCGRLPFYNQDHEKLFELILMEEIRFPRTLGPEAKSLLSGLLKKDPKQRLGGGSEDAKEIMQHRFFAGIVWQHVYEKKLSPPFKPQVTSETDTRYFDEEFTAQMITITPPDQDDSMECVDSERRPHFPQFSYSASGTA
experimental readout: AKT1 E17K IC50: Selectivity vs AKT1 WT

[[record]]
smi = "Nc1ncccc1-c1nc2ccc(-c3ccccc3)nc2n1-c1ccc(CNC(=O)C2(c3cnc(C=O)c(O)c3)CC2)cc1"
experimental_readout = "AKT1 E17K IC50: Selectivity vs AKT1 WT"
reported_result = 93

[[record]]
smi = "Nc1ncccc1-c1nc2cccnc2n1-c1ccc(CNCCc2ccc(C=O)c(O)c2F)cc1"
experimental_readout = "AKT1 E17K IC50: Selectivity vs AKT1 WT"
reported_result = 1.8

[[record]]
smi = "Nc1ncccc1-c1nc2cccnc2n1-c1ccc(CNC(=O)C2(c3ccc(C=O)c(O)c3)CC2)cc1"
experimental_readout = "AKT1 E17K IC50: Selectivity vs AKT1 WT"
reported_result = 29

[[record]]
smi = "Nc1ncccc1-c1nc2ccc(-c3cccnc3)nc2n1-c1ccc(CNCCc2ccc(C=O)c(O)c2F)cc1"
experimental_readout = "AKT1 E17K IC50: Selectivity vs AKT1 WT"
reported_result = 3.9

[[record]]
smi = "Nc1ncccc1-c1nc2ccc(C3CC3)nc2n1-c1ccc(CNC(=O)Cc2ccc(C=O)c(O)c2)cc1"
experimental_readout = "AKT1 E17K IC50: Selectivity vs AKT1 WT"
reported_result = 3.5

[[record]]
smi = "CN(CCc1ccc(C=O)c(O)c1)C(=O)c1ccc(-n2c(-c3cccnc3N)nc3ccc(-c4ccccc4)nc32)cc1"
experimental_readout = "AKT1 E17K IC50: Selectivity vs AKT1 WT"
reported_result = 2.7

[[record]]
smi = "Nc1ncccc1-c1nc2ccc(-c3ccccc3)nc2n1-c1ccc(CNCCc2cc(O)c(C=O)c(F)c2)cc1"
experimental_readout = "AKT1 E17K IC50: Selectivity vs AKT1 WT"
reported_result = 1


---

biological target: AKT1 E17K (Homo sapiens (Human), UniProt P31749, E17K); experiment: Live cell target engagement (NanoBRET) in HEK293 cells; assay type: cell-based
experimental readout: AKT1 E17K IC50: Selectivity vs AKT2

[[record]]
smi = "Nc1ncccc1-c1nc2ccc(-c3ccccc3)nc2n1-c1ccc(CNC(=O)Cc2ccc(C=O)c(O)c2Cl)cc1"
reported_result = 8.3

[[record]]
smi = "Nc1ncccc1-c1nc2ccc(-c3ccccc3)nc2n1-c1ccc(CNc2cc(-c3ccc(C=O)c(O)c3)ccn2)cc1"
reported_result = 1.6

[[record]]
smi = "Nc1ncccc1-c1nc2ccc(-c3ccccc3)nc2n1-c1ccc(CNCCc2cc(O)c(C=O)cc2F)cc1"
reported_result = 0.93

[[record]]
smi = "Nc1ncccc1-c1nc2ccc(Cl)nc2n1-c1ccc(CNCCc2ccc(C=O)c(O)c2)cc1"
reported_result = 8.4


---

molecular target: AKT1 E17K (Homo sapiens (Human), UniProt P31749, E17K); test: Live cell target engagement (NanoBRET) in HEK293 cells; format: cell-based
Measured AKT1 E17K IC50: Selectivity vs AKT2 accompanies every entry in the list below.
experimental readout: AKT1 E17K IC50: Selectivity vs AKT2

[[record]]
compound = "CN(Cc1ccc(-n2c(-c3cccnc3N)nc3ccc(-c4ccccc4)nc32)cc1)C(=O)Cc1ccc(C=O)c(O)c1 [Compound 64]"
system = "AKT1 E17K (Homo sapiens (Human), UniProt P31749, E17K)"
experimental_readout = "AKT1 E17K IC50: Selectivity vs AKT2"
reported_result = 2

[[record]]
compound = "Nc1ncccc1-c1nc2ccc(-c3ccccc3)nc2n1-c1ccc(CCNCc2ccc(C=O)c(O)c2F)cc1 [Compound 40]"
system = "AKT1 E17K (Homo sapiens (Human), UniProt P31749, E17K)"
experimental_readout = "AKT1 E17K IC50: Selectivity vs AKT2"
reported_result = 6.7

[[record]]
compound = "Nc1ncccc1-c1nc2ccc(-c3cccc(N4CCOCC4)c3)nc2n1-c1ccc(CNC(=O)Cc2ccc(C=O)c(O)c2Cl)cc1 [Example 13]"
system = "AKT1 E17K (Homo sapiens (Human), UniProt P31749, E17K)"
experimental_readout = "AKT1 E17K IC50: Selectivity vs AKT2"
reported_result = 3

[[record]]
compound = "Nc1ncccc1-c1nc2ccc(-c3ccccc3)nc2n1-c1ccc(C2(NCCc3ccc(C=O)c(O)c3)CCC2)cc1 [Compound 134]"
system = "AKT1 E17K (Homo sapiens (Human), UniProt P31749, E17K)"
experimental_readout = "AKT1 E17K IC50: Selectivity vs AKT2"
reported_result = 4.3

[[record]]
compound = "Nc1ncccc1-c1nc2ccc(-c3ccccc3)nc2n1-c1ccc(CNC(=O)c2cc(C=O)c(O)cc2F)cc1 [Example 4]"
system = "AKT1 E17K (Homo sapiens (Human), UniProt P31749, E17K)"
experimental_readout = "AKT1 E17K IC50: Selectivity vs AKT2"
reported_result = 38

[[record]]
compound = "Nc1ncccc1-c1nc2ccc(-c3ccccc3)nc2n1-c1ccc(CNCCc2ccc(C=O)c(O)c2)cc1 [Compound 133]"
system = "AKT1 E17K (Homo sapiens (Human), UniProt P31749, E17K)"
experimental_readout = "AKT1 E17K IC50: Selectivity vs AKT2"
reported_result = 4.7

[[record]]
compound = "Nc1ncccc1-c1nc2ccc(-c3cccnc3)nc2n1-c1ccc(CNC(=O)Cc2ccc(C=O)c(O)c2)cc1 [Compound 68]"
system = "AKT1 E17K (Homo sapiens (Human), UniProt P31749, E17K)"
experimental_readout = "AKT1 E17K IC50: Selectivity vs AKT2"
reported_result = 150


---

molecular target: AKT1 WT (Homo sapiens (Human), UniProt P31749); experiment: Live cell target engagement (NanoBRET) in HEK293 cells; type: cell-based; conditions: HEK293, 2 hours at 37° C.
Sequence (P31749 whole entry): as the sequence (P31749 whole entry E17K) above, with K17E counted along it
experimental readout: IC50

[[record]]
smi = "Nc1ncccc1-c1nc2ccc(-c3ccccc3)nc2n1-c1ccc(CNCCc2cc(O)c(C=O)cc2F)cc1"
system = "AKT1 WT (Homo sapiens (Human), UniProt P31749)"
experimental_readout = "IC50"
reported_result = "< 100 nM"

[[record]]
smi = "Nc1ncccc1-c1nc2ccc(-c3cccnc3)nc2n1-c1ccc(CNC(=O)c2ccc(O)c(C=O)c2)cc1"
system = "AKT1 WT (Homo sapiens (Human), UniProt P31749)"
experimental_readout = "IC50"
reported_result = "< 100 nM"

[[record]]
smi = "Nc1ncccc1-c1nc2cccnc2n1-c1ccc(CNCCc2ccc(C=O)c(O)c2)cc1"
system = "AKT1 WT (Homo sapiens (Human), UniProt P31749)"
experimental_readout = "IC50"
reported_result = "100 to 500 nM"

[[record]]
smi = "CC(=O)Nc1c(C=O)ccc(CCNCc2ccc(-n3c(-c4cccnc4N)nc4cccnc43)cc2)c1F"
system = "AKT1 WT (Homo sapiens (Human), UniProt P31749)"
experimental_readout = "IC50"
reported_result = "100 to 500 nM"

[[record]]
smi = "Nc1ncccc1-c1nc2ccc(-c3ccccc3)nc2n1-c1ccc(CNC(=O)Cc2ccc(C=O)c(O)n2)cc1"
system = "AKT1 WT (Homo sapiens (Human), UniProt P31749)"
experimental_readout = "IC50"
reported_result = "100 to 500 nM"

[[record]]
smi = "Nc1ncccc1-c1nc2ccc(-c3cccc(N4CCOCC4)c3)nc2n1-c1ccc(CNC(=O)Cc2ccc(C=O)c(O)c2F)cc1"
system = "AKT1 WT (Homo sapiens (Human), UniProt P31749)"
experimental_readout = "IC50"
reported_result = "< 100 nM"

[[record]]
smi = "Nc1ncccc1-c1nc2ccc(C3CC3)nc2n1-c1ccc(CNCCc2ccc(C=O)c(O)c2)cc1"
system = "AKT1 WT (Homo sapiens (Human), UniProt P31749)"
experimental_readout = "IC50"
reported_result = "100 to 500 nM"


---

biological target: AKT1 E17K (Homo sapiens (Human), UniProt P31749, E17K); assay: Live cell target engagement (NanoBRET) in HEK293 cells; format: cell-based
experimental readout: AKT1 E17K IC50: Selectivity vs AKT2

[[record]]
molecule = "Nc1ncccc1-c1nc2cccnc2n1-c1ccc(CNC(=O)c2ccc(O)c(C=O)n2)cc1"
measurement_qualifier = "="
reported_result = 3.7

[[record]]
molecule = "Nc1ncccc1-c1nc2cccnc2n1-c1ccc(CNC(=O)c2ccc(O)c(C=O)c2)cc1"
measurement_qualifier = "="
reported_result = 99

[[record]]
molecule = "Nc1ncccc1-c1nc2ccc(N3CC4CCC(C3)O4)nc2n1-c1ccc(CNC(=O)Cc2ccc(C=O)c(O)c2)cc1"
measurement_qualifier = "="
reported_result = 120

[[record]]
molecule = "Nc1ncccc1-c1nc2ccc(C3CC3)nc2n1-c1ccc(CNC(=O)Cc2ccc(C=O)c(O)c2Cl)cc1"
measurement_qualifier = "="
reported_result = 190

[[record]]
molecule = "Nc1ncccc1-c1nc2ccc(-c3ccccc3)nc2n1-c1ccc(CNC(=O)c2cc(F)c(O)c(C=O)c2)cc1"
measurement_qualifier = "="
reported_result = 48

[[record]]
molecule = "Nc1ncccc1-c1nc2ccc(-c3ccccc3)nc2n1-c1ccc(CNC(=O)C(F)c2ccc(C=O)c(O)c2)cc1 (stereo not drawn)"
measurement_qualifier = "="
reported_result = 37

[[record]]
molecule = "Nc1ncccc1-c1nc2cccnc2n1-c1ccc(CNC(=O)C(F)(F)c2ccc(C=O)c(O)c2)cc1"
measurement_qualifier = "="
reported_result = 43

[[record]]
molecule = "Cn1cc(C(=O)Nc2cc(CC(=O)NCc3ccc(-n4c(-c5cccnc5N)nc5cccnc54)cc3)ccc2C=O)cn1"
measurement_qualifier = "="
reported_result = 34

[[record]]
molecule = "Nc1ncccc1-c1nc2ccc(-c3ccccc3)nc2n1-c1ccc(CNC(=O)c2ccc(O)c(C=O)c2)cc1"
measurement_qualifier = "="
reported_result = 22

[[record]]
molecule = "Nc1ncccc1-c1nc2ccc(-c3ccccc3)nc2n1-c1ccc(C(=O)NCc2ccc(C=O)c(O)c2)cc1"
measurement_qualifier = "="
reported_result = 4.1

[[record]]
molecule = "Nc1ncccc1-c1nc2ccc(-c3cccnc3)nc2n1-c1ccc(CNC(=O)C2(c3ccc(C=O)c(O)c3F)CC2)cc1"
measurement_qualifier = ">"
reported_result = 240

[[record]]
molecule = "Nc1ncccc1-c1nc2ccc(-c3ccccc3)nc2n1-c1ccc(CNCCc2ccc(C=O)c(O)c2Cl)cc1"
measurement_qualifier = "="
reported_result = 2.3

[[record]]
molecule = "Nc1ncccc1-c1nc2ccc(-c3ccccc3)nc2n1-c1ccc(CC(=O)NC2(c3ccc(C=O)c(O)c3)CC2)cc1"
measurement_qualifier = "="
reported_result = 28

[[record]]
molecule = "Nc1ncccc1-c1nc2ccc(-c3ccncc3)nc2n1-c1ccc(CNCCc2ccc(C=O)c(O)c2)cc1"
measurement_qualifier = "="
reported_result = 18

[[record]]
molecule = "Nc1ncccc1-c1nc2ccc(C3CC3)nc2n1-c1ccc(CNC(=O)C(F)c2ccc(C=O)c(O)c2)cc1 (stereo not drawn)"
measurement_qualifier = "="
reported_result = 190

